Data provenance: patent US7511119B2

- Tested on: T cell lines against natural epitope SSX-241-49
- protocol.details: Cross-reactivity and functional avidity: IFN-gamma production by T cell lines raised against natural SSX-2 41-49;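 note: analogs presented ex vivo by competent APCs to T cells specific for the non-mutated epitope, scored by lowest activating concentration, peak cytokine effect and concentration at that peak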
- Assay type: cell-based, HHD transgenic mice
- measurement.setup: T cells raised to native peptide tested on analogs; footnote * and unit not given
Square brackets hold non-standard residues; d marks the D form. Peptide text beside a SMILES is read from it. Phe(4-F) = N[C@@H](Cc1ccc(F)cc1)C(=O)O
# reported Cross-reactivity and fct avidity (native to analogs)*; entries follow
# output: bare number, no unit

molecule | recorded.value
CC[C@H](C)[C@H](NC(=O)[C@H](CCCCN)NC(=O)[C@H](CCC(=O)O)NC(=O)[C@H](CO)NC(=O)[C@H](C)NC(=O)[C@@H](N)Cc1ccc(OC)cc1)C(=O)N[C@@H](Cc1ccccc1)C(=O)N[C@@H](Cc1ccc(O)cc1)C(=O)N[C@H](C(=O)O)C(C)C [SSX2 41-49 (K41(O-methyl Tyr))] (H-Y(Me)ASEKIFYV-OH) | 3
CC[C@H](C)[C@H](NC(=O)[C@H](CCCCN)NC(=O)[C@H](CCC(=O)O)NC(=O)[C@H](CO)NC(=O)[C@H](C)NC(=O)[C@@H](N)Cc1ccc(F)cc1)C(=O)N[C@@H](Cc1ccccc1)C(=O)N[C@@H](Cc1ccc(O)cc1)C(=O)N[C@H](C(=O)O)C(C)C [SSX2 41-49 (K41(Phe-4F))] (H-[Phe(4-F)]ASEKIFYV-OH) | 3

Kindly review the next molecule as well.
[in] Fill in: Cross-reactivity and fct avidity (native to analogs)* of CCC[C@H](NC(=O)[C@@H](N)CCCCN)C(=O)N[C@@H](CO)C(=O)N[C@@H](CCC(=O)O)C(=O)N[C@@H](CCCCN)C(=O)N[C@H](C(=O)N[C@@H](Cc1ccccc1)C(=O)N[C@@H](Cc1ccc(O)cc1)C(=O)N[C@H](C(=O)O)C(C)C)[C@@H](C)CC is ___
[out] 0.1
